Reference source: the RNAGym collection of RNA variant scans (doi:10.1073/pnas.2313332121)

A collection of variants and their measured polymerase ribozyme fitness (log ratio)
B1: TPR t1 (parent)
chain: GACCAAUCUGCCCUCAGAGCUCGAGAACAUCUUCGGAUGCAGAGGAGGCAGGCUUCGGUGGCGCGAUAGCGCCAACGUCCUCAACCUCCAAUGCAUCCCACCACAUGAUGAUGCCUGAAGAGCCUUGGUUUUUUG

# Variants of: B1
# test.protocol: polymerase ribozyme fitness, log enrichment relative to wild type (log ratio); higher = more active; in vitro selection for triplet polymerase activity
The answer should be written as a number, with no unit following it.

{"changes": "C72A U132A", "reported.property": "polymerase ribozyme fitness (log ratio)", "recorded.result": -0.00723}
{"changes": "C8U G44A G60A A121C G122U", "reported.property": "polymerase ribozyme fitness (log ratio)", "recorded.result": -1.04}
{"changes": "C15G C73U A75G G107U U109A C124G", "reported.property": "polymerase ribozyme fitness (log ratio)", "recorded.result": -5.07}
{"changes": "G48A C62U C115U", "reported.property": "polymerase ribozyme fitness (log ratio)", "recorded.result": -3.7}
{"changes": "C4G U125G", "reported.property": "polymerase ribozyme fitness (log ratio)", "recorded.result": 0.0157}

Problem: Identify polymerase ribozyme fitness (log ratio) associated with the variant A16G C70U C76A
Solution: -2.84

Problem: Identify polymerase ribozyme fitness (log ratio) associated with the variant G52A U87C G117C
Solution: -3.1

Problem: Identify polymerase ribozyme fitness (log ratio) associated with the variant G42C G44A A50C C82U C85U
Solution: -3.31

Problem: Identify polymerase ribozyme fitness (log ratio) associated with the variant A26U A29G
Solution: -4.77
